All figures here come from ChEMBL document CHEMBL1142811.

MEASURED_TARGET: UniProt P32245
MEASUREMENT_PROTOCOL: Maximum percentage of cAMP accumulation relative to alpha-MSH at human melanocortin 4 receptor at 10 uM
Type: functional
READOUT: Max (%)

The examples below pair each entry with its known result.
COc1ccc(-n2nc(Sc3ccc(Cl)cc3)cc(CC[C@@H](C)NC(=O)[C@H]3CN(C)CC[C@@H]3c3ccc(F)cc3)c2=O)cc1 = 59
COc1ccc(-n2nc(Sc3ccc(Cl)cc3)cc(CC[C@@H](C)NC(=O)[C@H]3CNCC[C@@H]3c3cccc(Cl)c3)c2=O)cc1 = 37
COc1ccc(-n2nc(Sc3ccc(Cl)cc3)cc(CC[C@@H](C)NC(=O)[C@H]3CCNC[C@@H]3c3ccc(F)cc3)c2=O)cc1 = 101
COc1ccc(-n2nc(Sc3ccc(Cl)cc3)cc(CC[C@@H](C)NC(=O)[C@H]3CCNC[C@@H]3c3ccc(C(F)(F)F)cc3)c2=O)cc1 = 75
COc1ccc(-n2nc(Sc3ccc(Cl)cc3)cc(CC[C@@H](C)NC(=O)[C@H]3CNC[C@@H]3c3ccccc3F)c2=O)cc1 = 82

1. COc1ccc(N2N=C(Sc3ccc(Cl)cc3)CC(CC[C@@H](C)NC(=O)C3CNC[C@@H]3c3ccc(F)cc3)C2=O)cc1 (single isomer, unassigned; 66)
2. COc1ccc(N2N=C(Sc3ccc(Cl)cc3)CC(CC[C@@H](C)NC(=O)[C@@H]3CCNC[C@H]3c3ccc(F)cc3)C2=O)cc1 (stereo in doubt; 64)
[in] Endpoint returns whichever of 1 and 2 has the numerically higher Max. Indicate which entry you chose by stating its label.
[out] 1
(1: 90%, 2: 16%)

1. COc1ccc(N2N=C(Sc3ccc(Cl)cc3)CC(CC[C@@H](C)NC(=O)[C@H]3CCNC[C@@H]3c3ccc(F)cc3)C2=O)cc1 (stereo in doubt; 63)
2. COc1ccc(-n2nc(Sc3ccc(Cl)cc3)cc(CC[C@@H](C)NC(=O)[C@H]3CNC[C@@H]3c3ccc(C)cc3)c2=O)cc1
3. COc1ccc(N2N=C(Sc3ccc(Cl)cc3)CC(CC[C@@H](C)NC(=O)C3CNC[C@H]3c3ccc(F)cc3)C2=O)cc1 (single isomer, unassigned; 68)
[in] Put the entries in order of Max, starting with the largest number. A ranking is expressed here by listing the labels in the requested order.
[out] 1, 2, 3
(1: 98%, 2: 67%, 3: 26%)

---

MEASURED_TARGET: Melanocortin receptor 4 (Homo sapiens, UniProt P32245)
Sequence (P32245 whole entry): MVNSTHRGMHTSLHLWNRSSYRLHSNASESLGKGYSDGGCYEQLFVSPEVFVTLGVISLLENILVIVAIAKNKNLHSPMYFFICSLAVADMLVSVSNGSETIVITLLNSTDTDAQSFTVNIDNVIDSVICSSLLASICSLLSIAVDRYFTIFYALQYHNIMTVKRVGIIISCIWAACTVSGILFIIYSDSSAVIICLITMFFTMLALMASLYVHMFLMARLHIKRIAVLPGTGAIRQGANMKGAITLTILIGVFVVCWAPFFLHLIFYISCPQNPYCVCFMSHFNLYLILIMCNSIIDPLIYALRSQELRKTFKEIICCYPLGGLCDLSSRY
MEASUREMENT_PROTOCOL: Maximum percentage of cAMP accumulation relative to alpha-MSH at human melanocortin 4 receptor at 10 uM
Format: functional
READOUT: Max (%)

The examples below pair each entry with its known result.
COc1ccc(N2N=C(Sc3ccc(Cl)cc3)CC(CC[C@@H](C)NC(=O)[C@@H]3CCNC[C@H]3c3ccc(F)cc3)C2=O)cc1 (stereo in doubt; 65) = 33
COc1ccc(N2N=C(Sc3ccc(Cl)cc3)CC(CC[C@@H](C)NC(=O)C3CNC[C@@H]3c3ccc(F)cc3)C2=O)cc1 (single isomer, unassigned; 67) = 90

I. COc1ccc(-n2nc(Sc3ccc(Cl)cc3)cc(CC[C@@H](C)NC(=O)[C@H]3CNC[C@@H]3c3ccccc3)c2=O)cc1
II. COc1ccc(-n2nc(Sc3ccc(Cl)cc3)cc(CC[C@@H](C)NC(=O)[C@H]3CNCC[C@@H]3c3ccc(F)cc3)c2=O)cc1
[in] Endpoint returns whichever of I and II has the numerically higher Max. Indicate which entry you chose by stating its label.
[out] I

---

MEASURED_TARGET: Melanocortin receptor 4 (Homo sapiens, UniProt P32245)
MEASUREMENT_PROTOCOL: Effective concentration at human melanocortin 4 receptor in cAMP release assay
READOUT: EC50 (µM)

1. COc1ccc(N2N=C(Sc3ccc(Cl)cc3)CC(CC[C@@H](C)NC(=O)C3CNC[C@H]3c3ccc(F)cc3)C2=O)cc1 (single isomer, unassigned; 68)
2. COc1ccc(-n2nc(Sc3ccc(Cl)cc3)cc(CC[C@@H](C)NC(=O)[C@H]3CNC[C@@H]3c3ccccc3)c2=O)cc1
[in] Endpoint returns whichever of 1 and 2 has the numerically higher EC50. Indicate which entry you chose by stating its label.
[out] 1

---

MEASURED_TARGET: Melanocortin receptor 4 (Homo sapiens)
MEASUREMENT_PROTOCOL: Maximum percentage of cAMP accumulation relative to alpha-MSH at human melanocortin 4 receptor at 10 uM
Type: functional
READOUT: Max (%)

The examples below pair each entry with its known result.
COc1ccc(-n2nc(Sc3ccc(Cl)cc3)cc(CC[C@@H](C)NC(=O)[C@H]3CNC[C@@H]3c3ccc(Cl)cc3)c2=O)cc1 = 70
COc1ccc(-n2nc(Sc3ccc(Cl)cc3)cc(CC[C@@H](C)NC[C@H]3CNCC[C@@H]3c3ccc(F)cc3)c2=O)cc1 = 60

a. COc1ccc(-n2nc(Sc3ccc(Cl)cc3)cc(CC[C@@H](C)NC(=O)[C@@H]3CNCCN3c3ccc(F)cc3)c2=O)cc1
b. COc1ccc(-n2nc(Sc3ccc(Cl)cc3)cc(CC[C@@H](C)NC(=O)[C@H]3CNCC[C@@H]3c3ccc(Cl)cc3)c2=O)cc1
[in] Endpoint returns whichever of a and b has the numerically higher Max. Indicate which entry you chose by stating its label.
[out] a

---

MEASURED_TARGET: UniProtKB P32245
MEASUREMENT_PROTOCOL: Inhibition of [125I]-NDP- alpha-MSH binding to human melanocortin 4 receptor expressed in CHO cells
Format: cell-based
pIC50: −log10 of the molar value.
READOUT: pIC50

COc1ccc(-n2nc(Sc3ccc(Cl)cc3)cc(CC[C@@H](C)NC(=O)[C@H]3CCNC[C@@H]3c3ccccc3F)c2=O)cc1 = 7.00
COc1ccc(-n2nc(Sc3ccc(Cl)cc3)cc(CC[C@@H](C)NC(=O)[C@H]3CCNC[C@@H]3c3ccc(C#N)cc3)c2=O)cc1 = 7.35

a. COc1ccc(-n2nc(Sc3ccc(Cl)cc3)cc(CC[C@@H](C)NC(=O)[C@@H]3CNCCN3c3ccc(F)cc3)c2=O)cc1
b. COc1ccc(N2N=C(Sc3ccc(Cl)cc3)CC(CC[C@@H](C)NC(=O)[C@H]3CCNC[C@@H]3c3ccc(F)cc3)C2=O)cc1 (stereo in doubt; 62)
[in] Endpoint returns whichever of a and b has the numerically higher pIC50. Indicate which entry you chose by stating its label.
[out] a

1. COc1ccc(-n2nc(Sc3ccc(Cl)cc3)cc(CC[C@@H](C)NC(=O)[C@H]3CNC[C@@H]3c3ccc(C)cc3)c2=O)cc1
2. COc1ccc(-n2nc(Sc3ccc(Cl)cc3)cc(CC[C@@H](C)NC(=O)[C@H]3CNC[C@@H]3c3ccc(F)cc3)c2=O)cc1
3. COc1ccc(N2N=C(Sc3ccc(Cl)cc3)CC(CC[C@@H](C)NC(=O)C3CNC[C@H]3c3ccc(F)cc3)C2=O)cc1 (single isomer, unassigned; 69)
4. COc1ccc(-n2nc(Sc3ccc(Cl)cc3)cc(CC[C@H](C)NC(=O)[C@H]3CNCCN3c3ccc(F)cc3)c2=O)cc1
[in] Put the entries in order of pIC50, starting with the largest number. A ranking is expressed here by listing the labels in the requested order.
[out] 1, 2, 3, 4
(1: 7.55, 2: 7.15, 3: 6.37, 4: 5.96)

---

MEASURED_TARGET: Melanocortin receptor 4 (Homo sapiens)
MEASUREMENT_PROTOCOL: Inhibition of [125I]-NDP- alpha-MSH binding to human melanocortin 4 receptor expressed in CHO cells
Format: cell-based
READOUT: IC50 (nM)

The examples below pair each entry with its known result.
COc1ccc(-n2nc(Sc3ccc(Cl)cc3)cc(CC[C@@H](C)NC(=O)[C@H]3CNCC[C@@H]3c3cccc(C(F)(F)F)c3)c2=O)cc1 = 100
COc1ccc(-n2nc(Sc3ccc(Cl)cc3)cc(CC[C@@H](C)NC(=O)[C@H]3CCNC[C@@H]3Cc3ccc(F)cc3)c2=O)cc1 = 390
COc1ccc(N2N=C(Sc3ccc(Cl)cc3)CC(CC[C@@H](C)NC(=O)[C@@H]3CCNC[C@H]3c3ccc(F)cc3)C2=O)cc1 (stereo in doubt; 65) = 280

I. COc1ccc(-n2nc(Sc3ccc(Cl)cc3)cc(CC[C@@H](C)NC(=O)[C@H]3CNCC[C@@H]3c3ccccc3F)c2=O)cc1
II. COc1ccc(-n2nc(Sc3ccc(Cl)cc3)cc(CC[C@@H](C)NC(=O)[C@H]3CCNC[C@@H]3Cc3ccccc3)c2=O)cc1
[in] Parameter metric = IC50. Return the lower-valued option from I and II . Indicate which entry you chose by stating its label.
[out] I
(I: 13 nM, II: 750 nM)

I. COc1ccc(-n2nc(Sc3ccc(Cl)cc3)cc(CC[C@@H](C)NC(=O)[C@H]3CNCC[C@@H]3c3ccc(Cl)cc3)c2=O)cc1
II. COc1ccc(N2N=C(Sc3ccc(Cl)cc3)CC(CC[C@@H](C)NC(=O)C3CNC[C@H]3c3ccc(F)cc3)C2=O)cc1 (single isomer, unassigned; 68)
[in] Endpoint returns whichever of I and II has the numerically higher IC50. Indicate which entry you chose by stating its label.
[out] II

P. COc1ccc(-n2nc(Sc3ccc(Cl)cc3)cc(CC[C@@H](C)NC(=O)[C@H]3CCNC[C@@H]3c3ccc(Cl)cc3)c2=O)cc1
Q. COc1ccc(N2N=C(Sc3ccc(Cl)cc3)CC(CC[C@@H](C)NC(=O)[C@H]3CNCC[C@@H]3c3ccc(F)cc3)C2=O)cc1 (stereo in doubt; 25)
[in] Endpoint returns whichever of P and Q has the numerically higher IC50. Indicate which entry you chose by stating its label.
[out] P
(P: 58 nM, Q: 26 nM)

a. COc1ccc(N2N=C(Sc3ccc(Cl)cc3)CC(CC[C@@H](C)NC(=O)C3CNC[C@@H]3c3ccc(F)cc3)C2=O)cc1 (single isomer, unassigned; 66)
b. COc1ccc(-n2nc(Sc3ccc(Cl)cc3)cc(CC[C@@H](C)NC(=O)[C@H]3CNCC[C@@H]3c3cccc(F)c3)c2=O)cc1
[in] Parameter metric = IC50. Return the lower-valued option from a and b . Indicate which entry you chose by stating its label.
[out] a

1. COc1ccc(-n2nc(Sc3ccc(Cl)cc3)cc(CC[C@@H](C)NC(=O)[C@H]3CNC[C@@H]3c3ccc(F)cc3F)c2=O)cc1
2. COc1ccc(-n2nc(Sc3ccc(Cl)cc3)cc(CC[C@@H](C)NC(=O)[C@H]3CNC[C@@H]3c3ccccc3F)c2=O)cc1
[in] Endpoint returns whichever of 1 and 2 has the numerically higher IC50. Indicate which entry you chose by stating its label.
[out] 2

a. COc1ccc(-n2nc(Sc3ccc(Cl)cc3)cc(CC[C@@H](C)NC(=O)[C@H]3CNCC[C@@H]3c3ccc(F)cc3)c2=O)cc1
b. COc1ccc(-n2nc(Sc3ccc(Cl)cc3)cc(CC[C@H](C)NC(=O)[C@@H]3CNCCN3c3ccc(F)cc3)c2=O)cc1
c. COc1ccc(-n2nc(Sc3ccc(Cl)cc3)cc(CC[C@@H](C)NC(=O)[C@H]3CNCC[C@@H]3c3cccc(Cl)c3)c2=O)cc1
[in] Put the entries in order of IC50, starting with the largest number. A ranking is expressed here by listing the labels in the requested order.
[out] b, c, a
(b: 1000 nM, c: 43 nM, a: 11 nM)

A. COc1ccc(-n2nc(Sc3ccc(Cl)cc3)cc(CC[C@@H](C)NC(=O)[C@H]3CCNC[C@@H]3c3ccc(F)cc3)c2=O)cc1
B. COc1ccc(-n2nc(Sc3ccc(Cl)cc3)cc(CC[C@@H](C)NC(=O)[C@H]3CNCCN3c3ccc(F)cc3)c2=O)cc1
C. COc1ccc(-n2nc(Sc3ccc(Cl)cc3)cc(CC[C@@H](C)NC(=O)[C@H]3CCNC[C@@H]3c3ccc(C(F)(F)F)cc3)c2=O)cc1
[in] Arrange items by their IC50 values in increasing order. A ranking is expressed here by listing the labels in the requested order.
[out] A, C, B
(A: 66 nM, C: 200 nM, B: 950 nM)

a. COc1ccc(N2N=C(Sc3ccc(Cl)cc3)CC(CC[C@@H](C)NC(=O)[C@H]3CNCC[C@@H]3c3ccc(F)cc3)C2=O)cc1 (stereo in doubt; 26)
b. COc1ccc(-n2nc(Sc3ccc(Cl)cc3)cc(CC[C@@H](C)NC(=O)[C@H]3CNCC[C@@H]3c3cccc4ccccc34)c2=O)cc1
[in] Endpoint returns whichever of a and b has the numerically higher IC50. Indicate which entry you chose by stating its label.
[out] b
